# maps each entry to its IC50
# system-under-test: recombinant human MAO-A (monoamine oxidase-A) (Homo sapiens, UniProt P21397)
# Construct: purchased Sigma-Aldrich
# Sequence (P21397 whole entry): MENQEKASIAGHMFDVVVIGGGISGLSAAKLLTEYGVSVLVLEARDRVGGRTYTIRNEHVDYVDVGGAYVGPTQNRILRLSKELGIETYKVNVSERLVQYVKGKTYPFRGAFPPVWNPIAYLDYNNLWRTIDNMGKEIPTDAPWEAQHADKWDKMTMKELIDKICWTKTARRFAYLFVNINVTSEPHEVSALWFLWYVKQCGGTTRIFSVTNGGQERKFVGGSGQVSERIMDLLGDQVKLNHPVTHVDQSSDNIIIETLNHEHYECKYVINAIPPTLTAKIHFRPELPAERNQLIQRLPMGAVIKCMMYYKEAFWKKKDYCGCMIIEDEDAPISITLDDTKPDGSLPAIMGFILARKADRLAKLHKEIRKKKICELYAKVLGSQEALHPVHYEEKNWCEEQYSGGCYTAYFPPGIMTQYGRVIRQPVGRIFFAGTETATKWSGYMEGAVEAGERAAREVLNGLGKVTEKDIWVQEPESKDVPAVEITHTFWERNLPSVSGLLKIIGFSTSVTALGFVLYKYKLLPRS
# experiment-notes: Activity on recombinant human MAO-A, Amplex Red method, 0.5 mM tyramine substrate
# Assay type: biochemical
# experimental-setup: 0.5 mM tyramine substrate, read-out: Inhibitory Activity (IC50, nM) MAO-A
Where a name gives a salt, the structure may show the parent alone.
Give just the number in nM; leave the unit off.

Cc1cc(-c2ccc3cn[nH]c3c2)cnc1-n1cnn(C/C(=C/F)CN)c1=O; 96000

Alright, here's another molecule for you.
Consider Cc1ccc(-c2cc(C)c3c(c2)CCC(=O)N3)nc1-n1cnn(C/C(=C/F)CN)c1=O [Example 215, hydrochloride] . Its measured IC50 is 96000

---

# system-under-test: recombinant human DAO (diamine oxidase) (Homo sapiens)
# Construct: purchased R&D systems
# Sequence (P19801 20-751): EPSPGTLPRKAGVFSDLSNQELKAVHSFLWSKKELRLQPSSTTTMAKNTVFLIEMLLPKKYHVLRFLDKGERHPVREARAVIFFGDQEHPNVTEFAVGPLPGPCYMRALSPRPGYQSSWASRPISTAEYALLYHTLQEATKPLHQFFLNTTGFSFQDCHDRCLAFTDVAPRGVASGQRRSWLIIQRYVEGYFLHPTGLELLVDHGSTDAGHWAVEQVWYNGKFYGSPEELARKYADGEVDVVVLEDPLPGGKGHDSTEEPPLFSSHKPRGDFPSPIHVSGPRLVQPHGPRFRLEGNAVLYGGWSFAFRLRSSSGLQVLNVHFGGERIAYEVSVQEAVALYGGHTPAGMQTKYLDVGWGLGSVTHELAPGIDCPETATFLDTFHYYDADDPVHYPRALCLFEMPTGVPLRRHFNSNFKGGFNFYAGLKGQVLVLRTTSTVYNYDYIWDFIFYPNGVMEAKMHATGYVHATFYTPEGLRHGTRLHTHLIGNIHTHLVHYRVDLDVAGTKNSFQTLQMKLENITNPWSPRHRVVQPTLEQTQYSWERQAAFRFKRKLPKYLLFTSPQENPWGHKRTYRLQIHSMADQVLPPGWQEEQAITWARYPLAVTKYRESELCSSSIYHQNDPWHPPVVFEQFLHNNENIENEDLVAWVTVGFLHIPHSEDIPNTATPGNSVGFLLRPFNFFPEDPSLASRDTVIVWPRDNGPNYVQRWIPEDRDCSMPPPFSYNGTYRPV
# experiment-notes: Activity on recombinant human DAO, Amplex Red method, 1 mM putrescine substrate
# Type: biochemical
# experimental-setup: recombinant human DAO, 1 mM putrescine; * = between 10 and 100 nM, ** = between 300 and 1000 nM; read-out: Inhibitory Activity (IC50, nM) DAO
Structures can show the parent of a compound that is named as a salt.
assay-readout: IC50 (nM)
Enter your answer as a number in nM; do not include the unit.

Please review the entries below; each comes with its answer.
NC/C(=C\F)Cn1ncn(-c2cccc(-c3cncc4ccccc34)c2)c1=O [Example 104, hydrochloride]; 54
Cc1cc(-c2ccc(C(F)(F)F)nc2)cnc1-n1cnn(C/C(=C/F)CN)c1=O [Example 148, hydrochloride]; 35
CC(=O)Nc1cc(-c2cnc(-n3cnn(C/C(=C/F)CN)c3=O)c(C)c2)ccn1 [Example 147, hydrochloride]; 450

Entry "NC/C(=C\F)Cn1ncn(-c2cccc(Br)n2)c1=O" ; IC50 = 16

Lookup result for Cc1cc(-c2cccc(-n3cnn(C/C(=C/F)CN)c3=O)c2)cn(C)c1=O [Example 89, hydrochloride] ; measured IC50: 4.7

The reported value for "NC/C(=C/F)Cn1ncn(-c2ccc(OCc3ccccc3)cc2)c1=O" in terms of IC50 is 47

IC50 reported for this compound NC/C(=C\F)Cn1ncn(-c2ccc(F)cc2)c1=O [Example 6, hydrochloride] : 1100

The recorded IC50 for entry Cc1cc(-c2ccc(N3CCOCC3)nc2)cnc1-n1cnn(C/C(=C/F)CN)c1=O [Example 149, hydrochloride] equals 490

Item: "Cc1c(-c2ccc(S(C)(=O)=O)cc2)cccc1-n1cnn(C/C(=C/F)CN)c1=O" | IC50: 310

---

# IC50 values compiled below
# system-under-test: recombinant human MAO-A (monoamine oxidase-A) (Homo sapiens)
# Construct: purchased Sigma-Aldrich
# experiment-notes: Activity on recombinant human MAO-A, Amplex Red method, 0.5 mM tyramine substrate
# Assay type: biochemical
# experimental-setup: 0.5 mM tyramine, read-out: Inhibitory Activity (IC50, nM) MAO-A
Where a name gives a salt, the structure may show the parent alone.

Some entries whose results are on file:
NC/C(=C\F)Cn1ncn(-c2ccc(OCc3ccccc3)cc2)c1=O [Example 8, hydrochloride]; 54000 nM
Cc1c(-c2ccc3sc(N)nc3c2)cccc1-n1cnn(C/C(=C/F)CN)c1=O [Example 114]; > 100000 nM
Cc1cc(-n2cnn(C/C(=C\F)CN)c2=O)ccc1Br [Example 15]; 710 nM
CC(=O)c1ccc(-c2ccc(-n3cnn(C/C(=C\F)CN)c3=O)cc2)s1 [Example 42, hydrochloride]; 18400 nM
Cc1cc(-n2cnn(C/C(=C/F)CN)c2=O)cnc1-c1ccc2sc(N)nc2c1 [Example 118, hydrochloride]; > 100000 nM

Reported IC50 of Cc1cc(-c2cccc(-n3cnn(C/C(=C/F)CN)c3=O)c2)cc2c1NC(=O)CC2 [Example 102, hydrochloride] : > 100000 nM

Input NC/C(=C\F)Cn1ncn(-c2c(F)cc(Br)cc2F)c1=O [Example 22, hydrochloride] . Output IC50: 12000 nM

Query Cc1cc(-c2ccc(S(C)(=O)=O)cc2)cnc1-n1cnn(C/C(=C/F)CN)c1=O [Example 133, hydrochloride] yields IC50 of > 100000 nM

Field IC50 (entry Cc1cc(-c2ccc(-c3noc(C4CC4)n3)cc2)cnc1-n1cnn(C/C(=C/F)CN)c1=O [Example 141, hydrochloride] ) reads > 100000 nM

IC50 reported for this molecule NC/C(=C\F)Cn1ncn(-c2cccc(-c3ccc(N4CCOCC4)c(F)c3)c2)c1=O [Example 75, hydrochloride] : > 100000 nM

Quick note, IC50 for CC(=O)Nc1cc(-c2cc(C)c(-n3cnn(C/C(=C/F)CN)c3=O)cn2)ccn1 [Example 123] landed at > 100000 nM

Lab note: measured IC50 of NC/C(=C/F)Cn1ncn(-c2ncc(Br)s2)c1=O [Example 40, hydrochloride] was 80 nM

Reported IC50 ( NC/C(=C\F)Cn1ncn(-c2ccc(Br)cc2F)c1=O [Example 12, hydrochloride] ) = 1500 nM

The recorded IC50 for entry CS(=O)(=O)c1ccc(-c2ccc(-c3cccc(-n4cnn(C/C(=C/F)CN)c4=O)c3)cc2)cc1 [Example 66, hydrochloride] equals > 100000 nM

Reported IC50 for NC/C(=C\F)Cn1ncn(-c2ncc(Br)cc2F)c1=O [Example 36, hydrochloride] was > 100000 nM

Note to self: IC50 recorded for Cc1cc(-c2ccc(C(F)(F)F)nc2)cnc1-n1cnn(C/C(=C/F)CN)c1=O [Example 148, hydrochloride] was 160000 nM

Note to self: IC50 recorded for CC(=O)c1ccc(-c2cnc(-n3cnn(C/C(=C/F)CN)c3=O)c(C)c2)s1 [Example 132, hydrochloride] was 62000 nM

Lookup result for NC/C(=C\F)Cn1ncn(-c2cccc(-c3cccc4[nH]ccc34)c2)c1=O [Example 98, hydrochloride] ; measured IC50: 76400 nM

IC50 reported for this molecule Cc1cc(-c2cccc(-n3cnn(C/C(=C/F)CN)c3=O)c2)ccc1N1CCOCC1 [Example 77, hydrochloride] : > 100000 nM

// IC50 lookup, molecule = NC/C(=C\F)Cn1ncn(-c2cccc(-c3ccc(-c4nnc[nH]4)cc3)c2)c1=O [Example 59] , result: > 100000 nM

According to the records, this molecule NC/C(=C/F)Cn1ncn(-c2ncc(Br)cc2F)c1=O [Example 35, hydrochloride] displays IC50 of 1500 nM

IC50 recorded for this molecule, NC/C(=C\F)Cn1ncn(-c2cccc(-c3cccc(-c4ncon4)c3)c2)c1=O [Example 62] , is > 100000 nM

// IC50 value for Cc1cc(-c2ccc(-c3ncon3)cc2)cnc1-n1cnn(C/C(=C/F)CN)c1=O [Example 139] : > 100000 nM

---

# system-under-test: recombinant human MAO-B (monoamine oxidase-B) (Homo sapiens, UniProt P27338)
# Construct: purchased Sigma-Aldrich
# Sequence (P27338 whole entry): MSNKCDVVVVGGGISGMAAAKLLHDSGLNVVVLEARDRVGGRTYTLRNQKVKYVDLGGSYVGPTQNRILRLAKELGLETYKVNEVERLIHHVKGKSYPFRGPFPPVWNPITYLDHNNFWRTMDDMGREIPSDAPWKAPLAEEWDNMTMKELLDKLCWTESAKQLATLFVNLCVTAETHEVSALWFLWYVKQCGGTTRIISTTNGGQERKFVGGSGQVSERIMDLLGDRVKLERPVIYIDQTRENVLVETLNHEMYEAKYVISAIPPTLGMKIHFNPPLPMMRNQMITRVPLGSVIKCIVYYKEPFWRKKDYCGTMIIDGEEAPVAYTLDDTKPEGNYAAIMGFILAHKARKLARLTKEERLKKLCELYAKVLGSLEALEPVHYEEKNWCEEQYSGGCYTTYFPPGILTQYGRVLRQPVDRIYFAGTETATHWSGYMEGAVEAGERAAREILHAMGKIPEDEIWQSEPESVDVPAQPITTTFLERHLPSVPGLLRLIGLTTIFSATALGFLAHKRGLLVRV
# experiment-notes: Activity on recombinant human MAO-B, Amplex Red method, 1 mM benzylamine substrate
# Type: biochemical
# experimental-setup: 1 mM benzylamine substrate, read-out: Inhibitory Activity (IC50, nM) MAO-B
# Procedure: The compounds according to the present technology were evaluated in terms of activity on recombinant human VAP-1 (R&D systems) by measuring the level of hydrogen peroxide in horseradish peroxidase (HRP)-coupled reaction using Amplex Red Hydrogen Peroxide Assay Kit (Molecular Probes, Invitrogen, USA). […] The inhibitory effect of the compounds was measured as a decrease (%) in the signal rate as compared to the control group without any inhibitor (only diluted DMSO). […]
Where a name gives a salt, the structure may show the parent alone.
assay-readout: IC50 (nM)
Unit nM implied. Number only.

These recorded examples may help you get a feel for the data.
NC/C(=C\F)Cn1ncn(-c2ncc(-c3ccc(-c4ncon4)cc3)s2)c1=O; 12
NC/C(=C\F)Cn1ncn(-c2cccc(-c3ccc(C(F)(F)F)nc3)n2)c1=O [Example 187, hydrochloride]; 940
NC/C(=C\F)Cn1ncn(-c2cnc(-c3ccc4nonc4c3)cn2)c1=O; 22

Please turn your attention to the following entry.
get_value(item= "CS(=O)(=O)c1ccc(-c2cnc(-n3cnn(C/C(=C/F)CN)c3=O)cn2)cc1" , readout=IC50) returns 110

These measurements were taken from patent US11492335B2.
